TESTED_ON: CYP450 2C9 (Homo sapiens)
Sequence (P11712 whole entry): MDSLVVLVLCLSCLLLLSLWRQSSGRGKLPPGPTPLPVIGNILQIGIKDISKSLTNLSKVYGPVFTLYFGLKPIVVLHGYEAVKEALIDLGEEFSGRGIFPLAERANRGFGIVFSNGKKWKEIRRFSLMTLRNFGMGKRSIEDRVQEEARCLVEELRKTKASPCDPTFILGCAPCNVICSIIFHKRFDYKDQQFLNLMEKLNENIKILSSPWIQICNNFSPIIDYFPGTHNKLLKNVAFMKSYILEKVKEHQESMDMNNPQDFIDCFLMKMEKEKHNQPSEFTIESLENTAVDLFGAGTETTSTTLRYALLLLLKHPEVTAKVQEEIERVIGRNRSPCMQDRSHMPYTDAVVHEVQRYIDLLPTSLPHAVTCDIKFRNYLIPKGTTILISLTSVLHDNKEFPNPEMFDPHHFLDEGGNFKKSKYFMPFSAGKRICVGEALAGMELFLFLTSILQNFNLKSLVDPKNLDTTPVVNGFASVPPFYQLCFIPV
MEASUREMENT_KIND: IC50 (µM)
Your answer is read as µM, so omit the unit and give the number.

Query :: Requested field: IC50. Item: Cn1c(C(C)(C)C)cc(=NC(=O)c2cc(C(F)(F)F)ccc2OCC(C)(C)O)n1CC1CCC1
Result :: 50

====

Tested on: P-gp
PROCEDURE_DETAILS: Brain penetration study with/without P-gp inhibitor tariquidar
Assay type: in vivo, male C57/BL6 mice
RECORDED_CONDITIONS: male, C57/BL6, mouse, brain, iv, with tariquidar 5 mg kg^–1 i.v. bolus, 30 min prior to RNB-61; RNB-61 1 mg kg^–1 i.v. + tariquidar 5 mg kg^–1 i.v.; read-out: brain T1/2 (converted)
MEASUREMENT_KIND: half-life (h)
I only need the number, in h, no unit after it.

Query :: Form field: reported half-life of Cn1c(C(C)(C)C)cc(=NC(=O)c2cc(C(F)(F)F)ccc2OCC(C)(C)O)n1CC1CCC1 [RNB-61]
Result :: 8.42
